assay: Half life in mouse at 2.5 mg/kg, po by tandem HPLC-mass spectrometry; assay type: ADME, organism-based; conditions: in vivo
measured.attribute: half-life (min)
// units = min; emit number, no label

Ask | What measured half-life goes with "CC(C)[C@H]1CC[C@@]2(CO2)[C@H]2C(=O)OCC(C(=O)O)=C[C@H]12" ?
Reply | 30

###

assay: AUClast in mouse at 0.5 mg/kg, iv by tandem HPLC-mass spectrometry; format: ADME, organism-based; design: dose 0.5 mg/kg, route intravenous, time 0 - last; conditions: in vivo
measured.attribute: AUC(0-t) (ng·h/mL)
// units = ng·h/mL; emit number, no label

Ask | What measured AUC(0-t) goes with "CC(C)[C@H]1CC[C@@]2(CO2)[C@H]2C(=O)OCC(C(=O)O)=C[C@H]12" ?
Reply | 10.4
